Assay: Inhibition of Severe acute respiratory syndrome coronavirus proteinase 3C using Dabcy-KTSAVLQSGFRKME-Edans peptide as a substrate incubated for 10 mins by fluorescence based assay
Parameters: species or system Severe acute respiratory syndrome-related coronavirus
assay.metric: IC50 (nM)
Give the number; nM is assumed, so skip it.

Sample O=C(/C=C/c1ccccc1)Nc1ccccc1SC(=O)/C=C/c1ccccc1 ; IC50 observed: 1060
